B1: HEEH_KT_rd6_3632 (parent)
chain: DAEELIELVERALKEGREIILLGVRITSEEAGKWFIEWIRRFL

variants of: B1; assay: folding stability dG (cDNA display proteolysis); higher = more stable; conditions: PBS, room temperature
Entries annotated with measured folding stability dG
Kindly answer with a numeric value in kcal/mol, unit omitted.

Record excerpt, results attached:
DAEELIELVERALKEGREMILLGVRITSEEAGKWFIEWIRRFL	3.23
DAEELIELVERALKEGRLIILLGVRITSEEAGKWFIEWIRRFL	3.83

folding stability dG recorded for this variant, DAEELIELVERAEKEGREIILLGVRITSEEAGKWFIEWIRRFL , is 2.96

folding stability dG recorded for this variant, DAEELWELVERALKEGREIILLGVRITSEEAGKWFIEWIRRFL , is 3.99

folding stability dG recorded for this variant, DAEELRELVERALKEGREIILLGVRITSEEAGKWFIEWIRRFL , is 3.38

folding stability dG recorded for this variant, DAEELIELVERALKEGREIILLMVRITSEEAGKWFIEWIRRFL , is 3.91

folding stability dG recorded for this variant, DAEELIELVERALKEGREIILLGVRITSEEAGKWFINWIRRFL , is 3.62

folding stability dG recorded for this variant, DAEELIELVERALKEGREIILLGVRITSEEAGKWFIEWIRRFW , is 3.89

folding stability dG recorded for this variant, DAEELIELVERALKEGREIILLGVRITSEEAGKWFIEWIREFL , is 3.37
